System: Yap1 mRNA
protocol.summary: Antisense inhibition of human Yap1 in A-431 cells by cEt gapmers, single dose (Example 3, RTS36584)
Format: cell-based
measurement.context: Table 9; A-431 cells, 5,000 cells per well, free uptake, 2,000 nM, approximately 48 hours; RTS36584; normalized to RIBOGREEN; Yap1 mRNA relative to untreated control cells
Strand notation (5' to 3'): a small letter for the sugar, then the base; units joined by * are phosphorothioate-linked, units joined directly phosphodiester-linked; [ ] holds rarer units or linkages, { } end groups; capitals alone tell only the bases. k = constrained ethyl (cEt); [5mC] = 5-methylcytosine; d = 2'-deoxy (DNA)
Assign true (1) whenever YAP1 (% UTC) does not fall below 50 % UTC; assign false (0) whenever it does.

Exam item: decide whether the reported YAP1 (% UTC) for 958506 (kG*k[5mC]*kA*dG*dA*dT*dA*dA*dT*d[5mC]*dG*dA*dG*kA*kT*kT; antisense) [Compound 958506] is at least 50 % UTC.
false (0)
